zone of inhibition at 400 µg/mL by entry:
System: Candida albicans
Test: Antifungal activity against Candida albicans ATCC 10231 at 400 ug/ml after 24 hr by cup-plate agar method
Format: functional
Conditions: ATCC 10231, 24 h, read-out: IZ
measured endpoint: zone of inhibition at 400 µg/mL

| molecule | measured endpoint | observed |
| --- | --- | --- |
| O=C(/C=C/c1cccc(Cl)c1)c1ccc(C(=O)/C=C/c2cccc(Cl)c2)cc1 | zone of inhibition at 400 µg/mL | 12 mm |
| COc1ccc(/C=C/C(=O)c2ccc(C(=O)/C=C/c3ccc(OO)cc3)cc2)cc1 | zone of inhibition at 400 µg/mL | 22 mm |
| C[C@@H]1[C@H](O)[C@@H](C)/C=C/C=C/C=C/C=C/C=C/C=C/C=C/[C@H](O[C@@H]2O[C@H](C)[C@@H](O)[C@H](N)[C@@H]2O)C[C@@H]2O[C@](O)(C[C@@H](O)C[C@@H](O)[C@H](O)CC[C@@H](O)C[C@@H](O)CC(=O)O[C@H]1C)C[C@H](O)[C@H]2C(=O)O [AMPHOTERICIN B] | zone of inhibition at 400 µg/mL | 21 mm |

* * *

Test system: Candida albicans
Assay: Antifungal activity against Candida albicans ATCC 10231 after 24 hr by disk diffusion method
Format: functional
Conditions: ATCC 10231, 24 h

| compound smiles | MIC, µg/mL |
| --- | --- |
| O=C(/C=C/c1ccccc1)c1ccc(C(=O)/C=C/c2ccccc2)cc1 | 200 |
| O=C(/C=C/c1ccc([N+](=O)[O-])cc1)c1ccc(C(=O)/C=C/c2ccc([N+](=O)[O-])cc2)cc1 | 200 |
| COc1ccc(/C=C/C(=O)c2ccc(C(=O)/C=C/c3ccc(OC)c(OC)c3)cc2)cc1OC | 200 |
| O=C(/C=C/c1ccccc1[N+](=O)[O-])c1ccc(C(=O)/C=C/c2ccccc2[N+](=O)[O-])cc1 | 100 |
| O=C(/C=C/c1ccc(Cl)cc1)c1ccc(C(=O)/C=C/c2ccc(Cl)cc2)cc1 | 200 |
| O=C(/C=C/c1ccccc1O)c1ccc(C(=O)/C=C/c2ccccc2O)cc1 | 100 |
| O=C(/C=C/c1cccc(Br)c1)c1ccc(C(=O)/C=C/c2cccc(Br)c2)cc1 | 200 |
| O=C(/C=C/c1ccc(Br)cc1)c1ccc(C(=O)/C=C/c2ccc(Br)cc2)cc1 | 200 |
| O=C(/C=C/c1ccccc1Cl)c1ccc(C(=O)/C=C/c2ccccc2Cl)cc1 | 100 |
